Tested on: Leishmania amazonensis
Experiment: […] inhibition incubated for 72 hrs by Giemsa stain based microscopic analysis
Type: functional, organism-based
result_type: pIC50
// pIC50 here means minus log10 of the molar concentration (mol/L)

**Q:** Need pIC50, item [Se]=C=NCCCCCCC1Cc2cccc3cccc(c23)C1
**A:** 6.55

====

Target: Carbonic anhydrase 7 (Homo sapiens, UniProt P43166)
Sequence (P43166 whole entry): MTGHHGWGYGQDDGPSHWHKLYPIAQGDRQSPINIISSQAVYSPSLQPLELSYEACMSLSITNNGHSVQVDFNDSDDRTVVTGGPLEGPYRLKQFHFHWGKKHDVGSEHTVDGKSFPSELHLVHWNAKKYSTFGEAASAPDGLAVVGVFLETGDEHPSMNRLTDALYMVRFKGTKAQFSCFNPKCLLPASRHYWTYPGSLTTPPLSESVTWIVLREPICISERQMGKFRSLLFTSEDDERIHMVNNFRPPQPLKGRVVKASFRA
result_type: Ki (µM)
All answers are understood in µM, so give the number only.

**Q:** For the compound shown here, Cc1ccc([Se]CC(C)N)cc1 (stereo unspecified) , give the reported Ki.
**A:** 10.4

====

Test system: Caco-2
Assay: Anticancer activity against human Caco-2 cells assessed as cell growth inhibition measured upto 72 hrs by MTT assay
Format: functional, cell-based
Conditions: Caco-2, 72 h
result_type: pIC50
Note on units: pIC50 is unitless, being -log10 of a concentration expressed in mol/L.

**Q:** Fill in: pIC50 of N#C[Se]CCCNC(=O)c1ccccc1Nc1cccc(C(F)(F)F)c1 is ___
**A:** 5.72

====

Test system: PANC-1
Assay: Anticancer activity against human PANC-1 cells assessed as cell growth inhibition by crystal violet staining based assay
Type: functional
result_type: pIC50
Interpret pIC50 as the negative base-10 log of the concentration measured in mol/L.

**Q:** Return reported pIC50; argument: C[Se](=O)O
**A:** 5.59

====

System: A-375
Experiment: Anticancer activity against human A-375 cells assessed as cell growth inhibition incubated for 72 hrs by MTT assay
Assay type: functional, cell-based
Conditions: A-375, 72 h
result_type: IC50 (µM)
# value in µM; strip the unit string

smi: C[Se]C[C@H](N)C(=O)O
unit_string: µM
IC50: 54

**Q:** I am curious: what IC50 value has been reported for N[C@@H](C[Se][Se]C[C@H](N)C(=O)O)C(=O)O ?
**A:** 3.6

====

Test system: Leishmania major
Assay: Antibacterial activity against Leishmania major assessed as bacterial growth inhibition incubated for 72 hrs by MTT assay
Format: functional, organism-based
result_type: pIC50
Scale: pIC50 equals -log10([C]), with [C] in mol/L.

**Q:** Hello, I am looking for reported pIC50 with Leishmania major for [Se]=C=NCCCCCCC1Cc2cccc3cccc(c23)C1 . Could you help?
**A:** 7.52

====

Tested on: MDA-MB-361
Test: Anticancer activity against human MDA-MB-361 cells assessed as cell growth inhibition incubated for 48 hrs by MTT assay
Format: functional, cell-based
Conditions: MDA-MB-361, 48 h
result_type: IC50
Phrase the answer as number then unit, nothing more needed.

**Q:** Lab note: need IC50 for NC(=[Se])N/N=C/c1cccc2cccnc12 on MDA-MB-361, anyone have it?
**A:** 9.2 µM

====

Test: Inhibition of Vibrio cholerae carbonic anhydrase alpha assessed as inhibition constant by stopped-flow CO2 hydration assay
result_type: Ki (nM)
Express the result in nM but write the number alone.

**Q:** For the compound NS(=O)(=O)c1ccc(CCNC(=[Se])NC(=O)c2ccc3c(c2)OCO3)cc1 , what Ki is on record?
**A:** 0.3

====

Tested on: UACC-375
Experiment: Anticancer activity against human UACC-375 cells assessed as cell growth inhibition measured after 6 days by SRB assay
Assay type: functional, cell-based
Settings: Homo sapiens, UACC-375, 144 h
result_type: IC50 (µM)
Provide the reading as a plain figure in µM.

**Q:** # input compound: C[Se]CC[C@H](N)C(=O)O ; wanted: its IC50
**A:** 50

====

Test system: Trypanosoma cruzi
Assay: Antibacterial activity against Trypanosoma cruzi Dm28c assessed as inhibition of bacterial growth incubated for 72 hrs by microplate reader analysis
Assay type: functional, organism-based
result_type: pIC50
Scale for pIC50: -log10 of concentration given in mol/L; no unit attached.

# count of solved cases: 2
smi: O=C(Cn1ccnc1[N+](=O)[O-])NCc1ccccc1
study_target: Trypanosoma cruzi
pIC50: 4.90
--
smi: CCCC/C(=N\NC(N)=[Se])c1ccc(Cl)c(Cl)c1
study_target: Trypanosoma cruzi
pIC50: 5.92

Next compound, pIC50 to be filled in.
**Q:** Data request, read-out pIC50, for NC(=[Se])NN=C(c1cccc(Br)c1)c1cccc(Br)c1
**A:** 5.92

====

Tested on: A549
Experiment: Anticancer activity against human A549 cells assessed as cell growth inhibition measured after 6 days by SRB assay
Assay type: functional, cell-based
Details: A549, 144 h
result_type: pIC50
pIC50 field: float, defined as -log10 of concentration (mol/L).

**Q:** So what does the record say about pIC50 for C[Se]CC[C@H](N)C(=O)O [SELENOMETHIONINE] ?
**A:** 4.19

====

Target: Carbonic anhydrase 12 (Homo sapiens, UniProt O43570)
Sequence (O43570 whole entry): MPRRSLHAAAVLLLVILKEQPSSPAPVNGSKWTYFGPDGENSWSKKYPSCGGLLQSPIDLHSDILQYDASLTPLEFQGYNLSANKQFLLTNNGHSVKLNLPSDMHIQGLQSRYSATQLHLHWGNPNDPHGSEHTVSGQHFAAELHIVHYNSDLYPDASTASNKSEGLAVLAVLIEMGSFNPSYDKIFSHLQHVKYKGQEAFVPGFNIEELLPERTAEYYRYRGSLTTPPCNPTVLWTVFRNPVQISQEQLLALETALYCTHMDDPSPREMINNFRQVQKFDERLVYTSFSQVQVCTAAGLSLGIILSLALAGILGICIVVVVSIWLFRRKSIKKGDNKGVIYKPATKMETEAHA
result_type: Ki (nM)
Just the number in nM, nothing appended.

**Q:** Please provide the recorded Ki for NS(=O)(=O)c1ccc(CCNC(=O)C[Se]c2ccccc2)cc1 , tested on Carbonic anhydrase 12 (Homo sapiens, UniProt O43570).
**A:** 3.8

====

Test system: LNCaP C4-2
Assay: Anticancer activity against human LNCaP C4-2 cells assessed as cell growth inhibition incubated for 24 hrs by MTT assay
Type: functional, cell-based
Details: LNCaP C4-2, 24 h
result_type: IC50 (µM)
Respond numerically; units are µM and should not be typed.

**Q:** So what's the measured IC50 for this one? N#C[Se]Cc1ccc(C[Se]C#N)cc1
**A:** 7.6

====

Test system: U-266
Assay: Anticancer activity against human U-266 cells assessed as cell growth inhibition incubated for 24 hrs by MTS assay
Type: functional, cell-based
Conditions: U-266, 24 h
result_type: IC50 (µM)
API: value field is a number in µM; no unit string.

**Q:** Record request: IC50 value, item O=c1c2ccccc2[se]n1-c1ccccc1 [EBSELEN]
**A:** 40

====

System: T47D
Experiment: Anticancer activity against human T47D cells assessed as cell growth inhibition
Format: functional, cell-based
result_type: pIC50
The quantity pIC50 is defined as the negative base-10 logarithm of the molar concentration.

**Q:** Find pIC50 (T47D) for the entry O=C(NC(=[Se])Nc1ccccc1)c1cccs1
**A:** 5.21
